- Tested On: T1, FBF-2 RBD (Caenorhabditis elegans, UniProt Q09312 164-575)
- T1 sequence: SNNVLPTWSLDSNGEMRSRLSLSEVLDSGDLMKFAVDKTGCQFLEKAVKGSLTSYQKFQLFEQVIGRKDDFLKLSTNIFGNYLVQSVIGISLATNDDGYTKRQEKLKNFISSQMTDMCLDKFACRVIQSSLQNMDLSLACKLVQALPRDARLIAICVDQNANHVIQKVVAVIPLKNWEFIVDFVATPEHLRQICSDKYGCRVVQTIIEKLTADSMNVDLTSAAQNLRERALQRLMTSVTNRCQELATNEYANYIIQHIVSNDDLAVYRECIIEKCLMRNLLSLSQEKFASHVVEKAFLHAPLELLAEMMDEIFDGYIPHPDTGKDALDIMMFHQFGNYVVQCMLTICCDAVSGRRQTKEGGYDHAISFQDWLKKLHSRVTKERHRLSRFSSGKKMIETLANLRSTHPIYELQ
- Test Method Notes: EMSA; apparent Kd, Hill fit; EMSA: 5 nM RNA, 10 mM HEPES pH 7.4, 75 mM NaCl, 0.01% Tween 20, 0.1 mg/ml BSA, 0.1 mg/ml yeast tRNA, 2 mM DTT, 4 C overnight
- Condition Parameters: protein: recombinant; tags: His-SUMO, removed by TEV; label: 3'-Cy5
Value Type: Kd (nM)
Give bare numbers, in nM.

List reported Kd for each of these binders:
1. AUCAUGUGCCAUACAUCAACAUGCCAUUU (ssRNA) [FBEa-FBEa*m]
2. AUCAUGUGCCAUACAUCAUGUUGCCAUUU (ssRNA) [gld-1 FBEa-FBEa* (EMSA)]

[145, 131]
